# STUDY SYSTEM: rat mGluR5 receptor (Rattus norvegicus, UniProt P31424)
# Construct: expressed in transfected cells; host or cells: HEK-293
# Sequence (P31424 21-1203): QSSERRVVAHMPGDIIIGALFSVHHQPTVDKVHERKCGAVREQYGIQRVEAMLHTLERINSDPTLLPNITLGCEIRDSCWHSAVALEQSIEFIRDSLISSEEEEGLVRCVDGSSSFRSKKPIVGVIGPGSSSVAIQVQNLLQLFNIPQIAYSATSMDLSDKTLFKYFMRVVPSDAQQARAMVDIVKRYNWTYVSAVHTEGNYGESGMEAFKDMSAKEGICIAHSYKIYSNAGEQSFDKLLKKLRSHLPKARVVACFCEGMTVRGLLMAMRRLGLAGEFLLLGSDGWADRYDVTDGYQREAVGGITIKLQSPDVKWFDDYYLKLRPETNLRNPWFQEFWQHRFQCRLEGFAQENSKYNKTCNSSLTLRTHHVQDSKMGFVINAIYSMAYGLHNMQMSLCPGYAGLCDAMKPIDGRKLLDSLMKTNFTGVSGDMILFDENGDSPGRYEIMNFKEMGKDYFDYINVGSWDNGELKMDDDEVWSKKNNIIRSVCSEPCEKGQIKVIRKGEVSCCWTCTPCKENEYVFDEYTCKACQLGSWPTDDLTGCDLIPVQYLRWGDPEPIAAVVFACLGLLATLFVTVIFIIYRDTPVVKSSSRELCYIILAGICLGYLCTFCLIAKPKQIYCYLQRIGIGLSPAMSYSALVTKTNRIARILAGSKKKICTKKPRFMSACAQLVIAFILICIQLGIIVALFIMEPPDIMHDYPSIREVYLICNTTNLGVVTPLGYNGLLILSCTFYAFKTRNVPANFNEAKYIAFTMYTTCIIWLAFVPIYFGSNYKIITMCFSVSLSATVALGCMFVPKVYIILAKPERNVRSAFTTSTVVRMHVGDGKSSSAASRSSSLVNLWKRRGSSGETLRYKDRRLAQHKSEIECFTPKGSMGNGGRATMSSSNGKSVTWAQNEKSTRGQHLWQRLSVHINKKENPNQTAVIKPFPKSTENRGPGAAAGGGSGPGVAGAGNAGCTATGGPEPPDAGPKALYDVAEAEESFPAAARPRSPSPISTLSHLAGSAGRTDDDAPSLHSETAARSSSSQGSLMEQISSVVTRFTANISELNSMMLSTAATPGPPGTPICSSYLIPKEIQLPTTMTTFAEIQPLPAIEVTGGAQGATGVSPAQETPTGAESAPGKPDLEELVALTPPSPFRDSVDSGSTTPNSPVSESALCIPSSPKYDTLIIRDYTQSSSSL
# ASSAY OVERVIEW: [3H]-MPEP displacement binding assay, HEK-293 cell membranes expressing rat mGluR5
# COND: 1 h, single point, @ 10 μm compound; Table 1A; read-out: PCT INHIB (%) @ 10 μm
Record form. Attribute: inhibition at 10 µM. Fill in for each entry.
Express your answer in %, writing the number without its unit.

Find the measured inhibition at 10 µM: item `COc1ccc(C(=O)N2CCN(c3ccccn3)CC2)cc1C#Cc1cc(C)ccc1C` , target or system rat mGluR5 receptor (Rattus norvegicus, UniProt P31424).
43

Request - read-out inhibition at 10 µM | tested on rat mGluR5 receptor (Rattus norvegicus, UniProt P31424) | molecule `Cc1ccc(C(=O)N2CCN(c3ccccn3)CC2)cc1C#Cc1cc(F)cc(F)c1`
41

Form: Entry = `Cc1ccc(C#Cc2cccc(C(=O)N3CCN(c4ccccn4)CC3)c2)cc1` | System = rat mGluR5 receptor (Rattus norvegicus, UniProt P31424) | inhibition at 10 µM = ____
55

What measured inhibition at 10 µM is associated with `Cc1ccc(C(=O)N2CCN(c3ccccn3)CC2)cc1C#CCc1ccccc1` on rat mGluR5 receptor (Rattus norvegicus, UniProt P31424)?
63

Param readout= inhibition at 10 µM; system= rat mGluR5 receptor (Rattus norvegicus, UniProt P31424); entry= `COc1ccc(C(=O)N2CCN(c3ccccn3)CC2)cc1C#Cc1cccc(C(F)(F)F)c1` ; returns value.
82

* * *

# STUDY SYSTEM: rat mGluR5 receptor (Rattus norvegicus)
# Construct: expressed in transfected cells; host or cells: HEK-293
# ASSAY OVERVIEW: [3H]-MPEP displacement binding assay, HEK-293 cell membranes expressing rat mGluR5
# COND: 1 h, single point, @ 10 μm compound; Table 1A; read-out: PCT INHIB (%) @ 10 μm
MEASURE: inhibition at 10 µM (%)
Give your result in % as a bare value.

What value of inhibition at 10 µM has been recorded for this entry: Nc1cccc(C#Cc2cccc(C(=O)N3CCN(c4ccccn4)CC3)c2)c1 [Compound 11]
85

Given the entry Cc1ccc(C(=O)N2CCN(c3ccccn3)CC2)cc1C#Cc1cccc(N)c1 [Compound 36] , report its measured inhibition at 10 µM.
79

Tell me the measured inhibition at 10 µM of COc1ccc(C(=O)N2CCN(c3ccccn3)CC2)cc1C#Cc1cccc(Cl)c1 [Compound 19] , please.
97

I'd like to know its inhibition at 10 µM. The compound in question is COc1cccc(C#Cc2cc(C(=O)N3CCN(c4cnccn4)CC3)ccc2OC)c1 [Compound 52]
81

What value of inhibition at 10 µM has been recorded for this entry: O=C(c1cccc(C#CC2(O)CCCCC2)c1)N1CCN(c2ccccn2)CC1 [Compound 12]
0

Field request: inhibition at 10 µM | item: COc1ccc(C(=O)N2CCN(c3cnccn3)CC2)cc1C#CC1=CCCCC1 [Compound 50]
90

Would you kindly share the measured inhibition at 10 µM for O=C(c1cccc(C#CC(O)c2ccccc2)c1)N1CCN(c2ccccn2)CC1 (stereo not drawn) [Compound 13] ?
15

Form field: reported inhibition at 10 µM of Cc1cccc(C#Cc2cc(C(=O)N3CCN(c4ccccn4)CC3)ccc2C)c1 [Compound 39]
83

What does the data say about its inhibition at 10 µM? Entry: COc1ccc(C(=O)N2CCN(c3ccccn3)CC2)cc1C#Cc1cc(F)cc(F)c1 [Compound 21]
79

* * *

# STUDY SYSTEM: mGluR5 (Rattus norvegicus, UniProt P31424)
# Sequence (P31424 21-1203): as above
# ASSAY OVERVIEW: IC50 column under 'Biological Activity' (assay not identified in the shown text; not the binding Ki)
MEASURE: pIC50
# reply with the number alone; pIC50 is -log10 of concentration in mol/L

Record request: pIC50 value, item COc1ccc(C(=O)N2CCN(c3cccc(Cl)c3)C(=O)C2)cc1C#Cc1ccccn1 [Compound 327]
7.31

pIC50 lookup needed for COc1ccc(C(=O)N2CCN(c3ccc(C(F)(F)F)cn3)CC2)cc1C#Cc1ccccn1 [Compound 183] , thanks.
7.18

What value of pIC50 has been reported for the following compound? COc1ccc(C(=O)N2CCN(c3nc4ccccc4o3)CC2)cc1C#Cc1ccccn1 [Compound 257]
6.96

Quick check: pIC50 of CCOc1ccc(C(=O)N2CCN(c3noc4ccccc34)CC2)cc1C#Cc1ccccn1 [Compound 322] ?
7.46

Entry COc1ccc(C(=O)N2CCN(c3ncccc3C(F)(F)F)CC2)cc1C#Cc1ccccn1 [Compound 184] has what pIC50?
6.93

Requested read-out: pIC50. Entry: COc1ccc(C(=O)N2CCN(c3ncc(Cl)cc3Cl)CC2)cc1C#Cc1ccccn1 [Compound 185]
7.37

Query: pIC50; subject: COc1ccc(C(=O)N2CCN(C(=O)c3ccccc3)CC2)cc1C#Cc1ccccn1 [Compound 244]
6.63

State the recorded pIC50 for this entry: COc1ccc(C(=O)N2CCN(Cc3ccc(Cl)cc3Cl)CC2)cc1C#Cc1ccccn1 [Compound 280]
6.50

Find the recorded pIC50 belonging to COc1ccc(C(=O)N2CCN(c3ccc(C(C)=O)cc3)CC2)cc1C#Cc1ccccn1 [Compound 237] and report it.
6.92

* * *

# STUDY SYSTEM: rat mGluR5 receptor (Rattus norvegicus)
# Construct: expressed in transfected cells; host or cells: HEK-293
# ASSAY OVERVIEW: [3H]-MPEP displacement binding assay, HEK-293 cell membranes expressing rat mGluR5
# COND: bound printed in place of a Ki; read-out: IC50 (printed in the Median Ki column)
For each entry below, report its IC50 value.

Which IC50 reading was recorded for the compound O=C(c1ccc(C(F)(F)F)c(C#Cc2ccccn2)c1)N1CCN(c2nc3ccccc3s2)CC1 [Compound 377] ?
> 10 µM

Would you kindly share the measured IC50 for COc1nc(N2CCN(C(=O)c3ccc(C(F)(F)F)c(C#Cc4ccccn4)c3)CC2)ncc1Br [Compound 365] ?
> 10 µM

* * *

# STUDY SYSTEM: rat mGluR5 receptor (Rattus norvegicus)
# Construct: expressed in transfected cells; host or cells: HEK-293
# ASSAY OVERVIEW: [3H]-MPEP displacement binding assay, HEK-293 cell membranes expressing rat mGluR5
# COND: Biological Activity, Table 2A; read-out: Median Ki
pKi: −log10 of the molar value.
Returns one of Satisfied or Not satisfied; Satisfied when pKi is >= 6.

Quick check: does O=C(c1cncc(C#Cc2ccccc2)c1)N1CCN(c2ccccn2)CC1 [Compound 87] have pKi greater than or equal to 6?
Not satisfied

Entry Cc1cccc(C)c1N1CCN(C(=O)c2cccc(C#Cc3ccccc3)c2)CC1 [Compound 78] : is its pKi no less than 6?
Not satisfied

Can COc1ccc(C(=O)N2CCN(c3cc(C)ccn3)CC2)cc1C#Cc1ccccc1 [Compound 115] be said to have pKi at or above 6?
Satisfied

I'd appreciate it if you could say whether O=C(c1cccc(C#Cc2ccccc2)c1)N1CCN(c2ccc(O)cc2)CC1 [Compound 83] has pKi at least equal to 6.
Not satisfied

Does pKi meet or surpass 6 for COc1ccc(C(=O)N2CCN(c3ncccn3)CC2)cc1C#Cc1ccccc1 [Compound 112] ?
Satisfied

Please indicate if the recorded pKi for COc1ccc(C(=O)N2CCN(c3ncccc3C#N)CC2)cc1C#Cc1ccccc1 [Compound 118] meets or exceeds 6.
Not satisfied

Determine whether this compound has pKi no lower than 6: Cc1ccnc(N2CCN(C(=O)c3ccnc(C#Cc4ccccc4)c3)CC2)c1 [Compound 124]
Satisfied

* * *

Give pKi for every item shown.
# STUDY SYSTEM: rat mGluR5 receptor (Rattus norvegicus)
# Construct: expressed in transfected cells; host or cells: HEK-293
# ASSAY OVERVIEW: [3H]-MPEP displacement binding assay, HEK-293 cell membranes expressing rat mGluR5
# COND: [3H]-MPEP displacement, rat mGluR5; read-out: Median Ki
Reminder that pKi means the negative base-10 logarithm of the concentration expressed in mol/L.

Notebook entry, rat mGluR5 receptor (Rattus norvegicus) assay: pKi of `CCS(=O)(=O)N1CCN(C(=O)c2ccc(OC)c(C#Cc3ccccn3)c2)CC1` = ?
6.64

Notebook: pull reported pKi for rat mGluR5 receptor (Rattus norvegicus), entry `COc1ccc(C(=O)N2CCN(c3noc4ccccc34)CC2)cc1C#Cc1ccccn1`
8.22

Give rat mGluR5 receptor (Rattus norvegicus) pKi for `COc1ccc(C(=O)N2CCN(c3ccccc3OC)CC2)cc1C#Cc1ccccn1`
6.13

State its pKi on rat mGluR5 receptor (Rattus norvegicus): `CCOc1ccc(C(=O)N2CCN(c3ncc(Cl)cc3Cl)CC2)cc1C#Cc1ccccn1`
6.19

Item: `COc1ccc(C(=O)N2CCN(c3cc(C)nc(C(C)C)n3)CC2)cc1C#Cc1ccccn1` Test system: rat mGluR5 receptor (Rattus norvegicus) Read-out: pKi Value: ?
7.05

Form: Entry = `COc1ccc(C(=O)N2CCN(c3ccc(Cl)nn3)CC2)cc1C#Cc1ccccn1` | System = rat mGluR5 receptor (Rattus norvegicus) | pKi = ____
7.51

Request body: readout pKi, system rat mGluR5 receptor (Rattus norvegicus), query `COc1ccc(C(=O)N2CCN(c3cc(Cl)nc(C)n3)CC2)cc1C#Cc1ccccn1` . Return the value.
6.80

Return pKi measured with rat mGluR5 receptor (Rattus norvegicus) given this compound: `O=C(c1ccc(OC(F)(F)F)c(C#Cc2ccccn2)c1)N1CCN(c2cccc(C(F)(F)F)c2)CC1`
5.80

Look up pKi with rat mGluR5 receptor (Rattus norvegicus) for this compound: `COc1ccc(C(=O)N2CCN(c3ccc(S(C)(=O)=O)cc3)CC2)cc1C#Cc1ccccn1`
6.28

Under rat mGluR5 receptor (Rattus norvegicus): pKi value of `COc1ccc(C(=O)N2CCN(c3ncc(F)cn3)CC2)cc1C#Cc1ccccn1` ?
7.48

Which measured pKi belongs to `COc1ccc(N2CCN(C(=O)c3ccc(OC)c(C#Cc4ccccn4)c3)CC2)cc1` , tested on rat mGluR5 receptor (Rattus norvegicus)?
7.18

// fetch rat mGluR5 receptor (Rattus norvegicus) pKi for `COc1ccc(C(=O)N2CCN(S(=O)(=O)c3ccc(Cl)s3)CC2)cc1C#Cc1ccccn1`
7.29

Param readout= pKi; system= rat mGluR5 receptor (Rattus norvegicus); entry= `O=C(c1ccc(OC(F)(F)F)c(C#Cc2ccccn2)c1)N1CCN(c2noc3ccccc23)CC1` ; returns value.
9.00

Look up pKi with rat mGluR5 receptor (Rattus norvegicus) for this compound: `COc1ccc(C(=O)N2CCCN(c3cccc(C)n3)CC2)cc1C#Cc1ccccn1`
6.21

I'm curious: which pKi was measured for `COc1ccc(C(=O)N2CCN(S(=O)(=O)c3ccc4ccccc4c3)CC2)cc1C#Cc1ccccn1` tested on rat mGluR5 receptor (Rattus norvegicus)?
7.15

Checklist item: pKi tested on rat mGluR5 receptor (Rattus norvegicus), entry `COc1ccc(C(=O)N2CCN(c3ncccc3Cl)CC2)cc1C#Cc1ccccc1` , value?
5.95

Form: Entry = `O=C(c1ccc(F)c(C#Cc2ccccn2)c1)N1CCN(c2ccccn2)CC1` | System = rat mGluR5 receptor (Rattus norvegicus) | pKi = ____
7.64

I'm curious: which pKi was measured for `COc1ccc(C(=O)N2CCN(Cc3c(F)cccc3Cl)CC2)cc1C#Cc1ccccn1` tested on rat mGluR5 receptor (Rattus norvegicus)?
6.57

# returns recorded pKi (system: rat mGluR5 receptor (Rattus norvegicus)) for `CCOc1ccc(C(=O)N2CCN(c3nccc(OC)n3)CC2)cc1C#Cc1ccccn1`
7.70

Item: `COc1ccc(C(=O)N2CCN(S(=O)(=O)c3c(C)noc3C)CC2)cc1C#Cc1ccccn1` Test system: rat mGluR5 receptor (Rattus norvegicus) Read-out: pKi Value: ?
5.81

Look up pKi with rat mGluR5 receptor (Rattus norvegicus) for this compound: `COc1ccc(C(=O)N2CCN(c3ccccc3C(F)(F)F)CC2)cc1C#Cc1ccccn1`
5.55

Missing value: pKi, rat mGluR5 receptor (Rattus norvegicus), entry `COc1ccc(C(=O)N2CCN(c3ccc([N+](=O)[O-])cn3)CC2)cc1C#Cc1ccccn1` . Fill in?
7.25

Under rat mGluR5 receptor (Rattus norvegicus): pKi value of `Cc1ccc(C(=O)N2CCN(c3ncc(Cl)cc3Cl)CC2)cc1C#Cc1ccccn1` ?
6.13

Given the entry `COc1ccc(C(=O)N2CCN(S(=O)(=O)c3ccc(Cl)c(Cl)c3)CC2)cc1C#Cc1ccccn1` , what pKi was observed with rat mGluR5 receptor (Rattus norvegicus)?
5.85

Notebook entry, rat mGluR5 receptor (Rattus norvegicus) assay: pKi of `COc1ccc(C(=O)N2CCN(c3cc(C)ccc3C)CC2)cc1C#Cc1ccccn1` = ?
6.00

I'm curious: which pKi was measured for `COc1ccc(C(=O)N2CCN(c3nc(-c4ccccc4)ns3)CC2)cc1C#Cc1ccccn1` tested on rat mGluR5 receptor (Rattus norvegicus)?
6.71

Item: `COc1cccc(C(=O)N2CCN(C(=O)c3ccc(OC)c(C#Cc4ccccn4)c3)CC2)c1` Test system: rat mGluR5 receptor (Rattus norvegicus) Read-out: pKi Value: ?
6.97

Reported pKi for rat mGluR5 receptor (Rattus norvegicus), given `COc1ccc(C(=O)N2CCN(C(=O)c3ccccc3OC)CC2)cc1C#Cc1ccccn1` ?
6.77

Request: pKi, test system rat mGluR5 receptor (Rattus norvegicus), entry `COc1ccc(C(=O)N2CCN(c3ccc(Cl)cc3)C(=O)C2)cc1C#Cc1ccccn1`
7.14

Missing value: pKi, rat mGluR5 receptor (Rattus norvegicus), entry `COc1ccc(C(=O)N2CCN(c3nccs3)CC2)cc1C#Cc1ccccn1` . Fill in?
7.77

What value of pKi on rat mGluR5 receptor (Rattus norvegicus) does `COc1ccc(C(=O)N2CCN(c3cccc(Cl)c3)CC2)cc1C#Cc1ccccn1` have?
8.40

Value wanted: pKi (rat mGluR5 receptor (Rattus norvegicus)) of entry `COc1ccc(C(=O)N2CCCN(c3ccc(C#N)cn3)CC2)cc1C#Cc1ccccn1`
5.98

Entry `COc1ccc(C(=O)N2CCN(Cc3cccc(F)c3)CC2)cc1C#Cc1ccccn1` , system rat mGluR5 receptor (Rattus norvegicus): what pKi was measured?
7.24

All figures here come from patent US20090325964A1.
